testedOn: recombinant HIV-1 reverse transcriptase (Human immunodeficiency virus type 1 group M subtype B, UniProt P03366)
Construct: recombinant HIV-1 reverse transcriptase; S. Hughes, ABL Basic Research NCI-FCRDC, Frederick Md
assayMethodText: HIV-1 reverse transcriptase assay (rAdT and rCdG template/primer)
Format: biochemical
appliedConditions: read-out: Reverse transcriptase rCdG I50; Table 7; rCdG template/primer; high dose test 100 μM
Procedure: The 5-bromovaleroyl thioester, compound 44, and two 5-pyridiniovaleroyl thioesters, compounds 45and 47, were analyzed in mechanistic and target-based assays. […] Assays for activity against HIV-1 reverse transcriptase rAdT (template/primer) and rCdG (template/primer) using recombinant HIV-1 reverse transcriptase (S. Hughes, ABL Basic Research NCI-FCRDC, Frederick Md.) were performed as described by Rice (1997) supra. […]
readoutType: IC50

> print(dat)
                             compoundstring  observedmeasurement
1  O=C(CCCC[n+]1ccccc1)Sc1ccccc1C(=O)Nc1ccc(S(=O)(=O)c2ccc([N+](=O)[O-])cc2)cc1             > 100 µM

Cited source: patent US7625917B2
